SYSTEM: T1, Human Scribble (SCRIB) PDZ3 domain (1002-1094) (human, UniProt Q14160 1002-1094)
T1 sequence: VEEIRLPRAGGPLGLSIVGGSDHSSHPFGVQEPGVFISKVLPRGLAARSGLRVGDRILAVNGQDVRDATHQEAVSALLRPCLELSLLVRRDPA
PROCEDURE_SUMMARY: ITC
TEST_READOUT: Kd (µM)
Give the value, in units of µM, as a plain number.

Short answer for KHFRETEV [HTLV-1 Tax1 PBM peptide (KHFRETEV, residues 346-353)] : Kd was 9.1

Where do these numbers come from? They come from paper PMC10952772.
